System: DU-145 prostate
test_details: NCI-60 one-dose screen, 48 h (100 = growth as untreated, 0 = no growth, -100 = all killed)
run_parameters: 10 µM unless noted
This is part of a sample that, as a whole, favours compounds with a hit. Of some 83,000 tested, about 20% had one in any assay.
attribute_measured: growth (%)
Use % as the unit, but write only the number.

{"mol": "COC(=O)CSc1ccc(Cl)cc1", "result_units": "%", "growth": 111}
{"mol": "O=C1C(Cl)=C(Nc2cccc3ccccc23)C(=O)c2ccccc21", "result_units": "%", "growth": 111}

Continue with the compound presented below.
Input line: Form field - read-out: growth; system: DU-145 prostate; submitted item: CN(C)c1nc(-c2ccco2)n2nc(-c3ccc(Cl)cc3)cc2n1
Output line: 77

---

growth values for the compounds below.
Test system: DU-145 prostate
test_details: NCI-60 one-dose screen, 48 h (100 = growth as untreated, 0 = no growth, -100 = all killed)
run_parameters: 10 µM unless noted
Compounds without any hit were thinned out: in the full panel of roughly 83,000, 20% have a hit.
Use % as the unit, but write only the number.

A selection of reference data follows.
{"compound": "COc1cc(CN2CCC(N3CCCC3=O)c3ccccc32)cc(OC)c1OC (configuration not stated)", "result_units": "%", "growth": 108}
{"compound": "CCn1c(=O)c(C(=O)NCCCO)c(O)c2ccccc21", "result_units": "%", "growth": 122}
{"compound": "C#CCNc1nc(NCCNC(=O)CCl)nc(N(C)CCCCc2ccccc2)n1", "result_units": "%", "growth": 101}
{"compound": "COc1ccc(-c2cc(-c3cc4ccccc4oc3=O)n(-c3ccccc3)n2)cc1", "result_units": "%", "growth": 84}
{"compound": "CCOC(=O)C1C(=O)C=C(c2cc(OC)c(OC)c(OC)c2)CC1c1sc(N(C)Cc2ccccc2)nc1Cl (configuration not stated)", "result_units": "%", "growth": 106}
{"compound": "CCCCOC(=O)c1cc(O)c(O)c(O)c1", "result_units": "%", "growth": 74}
{"compound": "CC(C)(C)[Si](C)(C)OC1[C@@H](CNC(N)=O)O[C@@H](n2cnc3c(NC(=O)Nc4ccccc4)ncnc32)[C@H]1O[Si](C)(C)C(C)(C)C (some centres not stated)", "result_units": "%", "growth": 72.6}
{"compound": "CC1OC(n2c3ccccc3c3c4c(c5c6ccccc6[nH]c5c32)C(=O)N(CCN[C@H]2CCC[C@@H]2N)C4=O)CC(O)C1O (some centres not stated)", "result_units": "%", "growth": 44.5}

Input line: What does the record list as growth for COc1ccc(-c2nc3ccccc3n3cccc23)cc1 ?
Output line: 119

Input line: One more compound: N/C(=C\C(=O)n1nc(-c2ccccc2)cc1N)c1ccccc1
Output line: 58.2

Input line: One more compound: COc1ccc(/C=C(\C#N)c2cc(OC)c(OC)c(OC)c2)cc1
Output line: -1.75

Input line: One more compound: CO[C@H](C(=O)[C@@H](O)[C@@H](C)O)[C@@H]1Cc2cc3cc(O[C@H]4C[C@@H](O[C@H]5C[C@@H](O)[C@H](O)C(C)O5)[C@H](O)C(C)O4)c(C)c(O)c3c(O)c2C(=O)[C@H]1O[C@H]1C[C@@H](O[C@H]2C[C@@H](O[C@H]3C[C@](C)(O)C(=O)C(C)O3)[C@@H](O)C(C)O2)[C@H](O)C(C)O1 (some centres not stated)
Output line: 9.76

Input line: One more compound: CC(CN1CCN(CC(C)Nc2ccnc3cc(Cl)ccc23)CC1)Nc1ccnc2cc(Cl)ccc12 (configuration not stated)
Output line: 30

Input line: One more compound: CCN(CC)CC(=O)Nc1c(C)ccc(N)c1C
Output line: 107

Input line: One more compound: O=C1CCCN1C1CCN2CCCc3cccc1c32 (configuration not stated)
Output line: 119

Input line: One more compound: COc1cc(OC)c(C(=O)/C=C/c2cccc(OC(C)=O)c2)cc1CC=C(C)C
Output line: 69.2

Input line: One more compound: COc1cccc(/C(C)=N/NC(=O)CSc2nc3ccccc3c(=O)n2CCc2ccc(S(N)(=O)=O)cc2)c1
Output line: 18.4

Input line: One more compound: COc1ncnc2[nH]cc(CN3CCN(c4ccc(F)cc4)CC3)c12
Output line: 116

Input line: One more compound: O=C(Nc1ccc(Cl)cc1)c1cc(-c2ccc(Cl)cc2)c2sc(=O)[nH]c2n1
Output line: 16.5

Input line: One more compound: CC(C)(C)[Si](C)(C)OC1[C@@H](O[Si](C)(C)C(C)(C)C)[C@@H](CNC(=O)NC(=O)NC(=O)CCl)O[C@H]1n1cnc2c(NC(=O)Nc3ccccc3)ncnc21 (some centres not stated)
Output line: 87.5

Input line: One more compound: FC(F)(F)c1cc(-c2nnc3n2N=C(Cl)CS3)cc(C(F)(F)F)c1
Output line: 112

Input line: One more compound: CC(=O)O[C@H]1CC[C@]2(C)[C@H]3CC=C4[C@@H]5CC(C)(C)CC[C@]5(C(=O)OCC(COC(=O)C(Cl)Cl)(COC(=O)C(Cl)Cl)NC(=O)C(Cl)Cl)CC[C@@]4(C)[C@]3(C)CC[C@H]2C1(C)C
Output line: 62.2

Input line: One more compound: Cc1cccc(N=NC(=S)NNc2cccc(C)c2)c1
Output line: 122

Input line: One more compound: CN(C)c1nc(-c2cccs2)n2nc(-c3ccco3)cc2n1
Output line: 116

Input line: One more compound: COc1cc(OC)c2sc(-c3ccc(-n4cncc4-c4ccc(OC)c(N)c4)cc3)nc2c1
Output line: 93.5

Input line: One more compound: c1cc(C2CCCCC2)ccc1-c1cnc2nonc2n1
Output line: 13.8

Input line: One more compound: CCC(=O)NC1=C(Cl)C(=O)C(NC(=O)CC)=C(Cl)C1=O
Output line: 44.3

Input line: One more compound: COc1cc(/C=C/c2cc(/C=C/c3ccc(O)c(OC)c3)n(C(=O)c3ccccc3Br)n2)ccc1O
Output line: 28.9

Input line: One more compound: CNC(=O)c1c(NC(=O)c2cccc(C(F)(F)F)c2)sc2c1CCC(=O)C2
Output line: 23.9

Input line: One more compound: O=c1c2cc(Br)cc(Br)c2nc(-c2ccc(Cl)cc2)n1/N=C\c1ccccc1F
Output line: 96

Input line: One more compound: Nc1ccc(C2=NNC(=O)Cc3cc4c(cc32)OCCO4)cc1Cl
Output line: 67.5

Input line: One more compound: CC(=O)C1CCC2C3CC(C)=C4CC(O)CCC4(C)C3CCC12C (configuration not stated)
Output line: 119

---

Tested on: SK-MEL-2 melanoma
test_details: NCI-60 one-dose screen, 48 h
run_parameters: 10 µM unless noted
About 83,000 compounds went through this panel and 20% of them were active in at least one assay; those are over-represented in the sample as a whole. Activity calls are given as the source filed them. The calls were made as follows: active = growth percent below 10; inactive = the rest.
Classes to choose from: active, inactive

{"compound": "CCNC(=O)c1ccc2c(c1)nc(-c1ccc(Cl)cc1)n2-c1cc(C(C)(C)C)[nH]n1", "answer_label": "inactive"}

Input line: Outcome logged for O=C(CC(=O)c1ccccc1F)Nc1ccc([N+](=O)[O-])cc1 in this assay:
Output line: inactive

Input line: One more compound: COc1cc(C2CC(c3ccc(C)cc3)=NN2C=O)ccc1Oc1ccnc2cc(Cl)ccc12 (stereo unspecified)
Output line: active

Input line: One more compound: COc1cccc(-c2nc3sccn3c2-c2ccnc(NCCN3CCCNS3(=O)=O)n2)c1
Output line: inactive

Input line: One more compound: O=C1Nc2ccccc2/C1=C\c1nc(C2CCN(S(=O)(=O)c3ccc(F)cc3)CC2)n2ccccc12
Output line: inactive

Input line: One more compound: C(=Nc1ccc(-c2ccc(N=Cc3ccccc3)cc2)cc1)c1ccccc1
Output line: inactive

Input line: One more compound: CCN1C(=O)N(CC)C2C1NC(=O)N2/N=C/C=C/c1ccccc1 (stereo unspecified)
Output line: inactive

Input line: One more compound: CCOC(OCC)c1cnc2nc(NC(C)=O)[nH]c(=O)c2n1
Output line: inactive

Input line: One more compound: COc1ccc(/C(C)=N/NC(=O)c2ccc(S(C)(=O)=O)cc2)cc1OC
Output line: inactive

Input line: One more compound: O=C(CC(=O)c1cccc(Cl)c1)c1cccc(Cl)c1
Output line: inactive

Input line: One more compound: COc1cccc(-c2cc(-c3cccs3)c(C#N)c(=O)[nH]2)c1
Output line: inactive

Input line: One more compound: COc1ccc(Nc2nc(N)nc3c(=O)[nH]ccc23)cc1
Output line: inactive

Input line: One more compound: CCn1c(Cc2ccccc2Nc2c(Cl)cccc2Cl)nnc1SCC(=O)Nc1ccccc1C(F)(F)F
Output line: inactive

Input line: One more compound: O=C1NN(C(=O)c2ccccc2)C(c2ccc(Cl)c(Cl)c2)=C/C1=C\c1ccccc1[N+](=O)[O-]
Output line: inactive

Input line: One more compound: CC(C)c1nc2ccccc2n1CC(=O)N/N=C/c1cccc(O)c1
Output line: inactive

Input line: One more compound: COc1ccc(CNc2c3ccccc3nc3ccc(OC)cc23)cc1
Output line: inactive
